Measured refractive index by item
experiment: refractive index (Na D-line) (dimensionless); conditions: 313.15 K; 101.33 kPa; Liquid; Standard Abbe refractometry
When you answer, write just the number.

stdin: What value of refractive index has been reported for the following compound? CC(C)Cn1cc[n+](C)c1.O=S(=O)([N-]S(=O)(=O)C(F)(F)F)C(F)(F)F
stdout: 1.42232

stdin: Another compound to look at: CC(C)C[N+]1(C)CCCCC1.O=S(=O)([N-]S(=O)(=O)C(F)(F)F)C(F)(F)F
stdout: 1.42668

stdin: Another compound to look at: CC(C)C[N+]1(C)CCCC1.O=S(=O)([N-]S(=O)(=O)C(F)(F)F)C(F)(F)F
stdout: 1.41982

stdin: Another compound to look at: CCCC[n+]1cccc(C)c1.O=S(=O)([N-]S(=O)(=O)C(F)(F)F)C(F)(F)F
stdout: 1.44109

stdin: Another compound to look at: CCCC[N+]1(C)CCCC1.O=S(=O)([N-]S(=O)(=O)C(F)(F)F)C(F)(F)F
stdout: 1.4188

---

experiment: refractive index (Na D-line) (dimensionless); details: 293.15 K; 101.33 kPa; Liquid; Standard Abbe refractometry
Measured refractive index by item
When you answer, write just the number.

- substance_smiles: "CCCC[n+]1ccn(C)c1.O=S(=O)([N-]S(=O)(=O)C(F)(F)F)C(F)(F)F"
  refractive index: 1.4286
- substance_smiles: "Cc1ccc[n+](CC(C)C)c1.O=S(=O)([N-]S(=O)(=O)C(F)(F)F)C(F)(F)F"
  refractive index: 1.44743
- substance_smiles: "CC(C)C[N+]1(C)CCCCC1.O=S(=O)([N-]S(=O)(=O)C(F)(F)F)C(F)(F)F"
  refractive index: 1.43243
- substance_smiles: "CCCC[N+]1(C)CCCCC1.O=S(=O)([N-]S(=O)(=O)C(F)(F)F)C(F)(F)F"
  refractive index: 1.43105

stdin: What value of refractive index has been reported for the following compound? CCCC[N+]1(C)CCCC1.O=S(=O)([N-]S(=O)(=O)C(F)(F)F)C(F)(F)F
stdout: 1.42466

stdin: Another compound to look at: CC(C)C[N+]1(C)CCCC1.O=S(=O)([N-]S(=O)(=O)C(F)(F)F)C(F)(F)F
stdout: 1.42563

stdin: Another compound to look at: CC(C)Cn1cc[n+](C)c1.O=S(=O)([N-]S(=O)(=O)C(F)(F)F)C(F)(F)F
stdout: 1.42854

stdin: Another compound to look at: CCCC[n+]1cccc(C)c1.O=S(=O)([N-]S(=O)(=O)C(F)(F)F)C(F)(F)F
stdout: 1.44737

---

Measured Normal melting temperature by item
conditions: Crystal; DTA
Respond with the bare value in °C.

Record excerpt, results attached:
- substance_smiles: "CCCC[N+]1(C)CCCC1.O=S(=O)([N-]S(=O)(=O)C(F)(F)F)C(F)(F)F"
  Normal melting temperature / °C: -13.4
- substance_smiles: "CCCCCC[n+]1ccn(C)c1.O=S(=O)([N-]S(=O)(=O)C(F)(F)F)C(F)(F)F"
  Normal melting temperature / °C: -10.5
- substance_smiles: "CC(C)C[N+]1(C)CCCC1.O=S(=O)([N-]S(=O)(=O)C(F)(F)F)C(F)(F)F"
  Normal melting temperature / °C: -0.2

Would you kindly look at the next entry?
stdin: What value of Normal melting temperature has been reported for the following compound? CC(C)C[N+]1(C)CCCCC1.O=S(=O)([N-]S(=O)(=O)C(F)(F)F)C(F)(F)F
stdout: 14.8

---

conditions: 348.15 K; 101.33 kPa; Liquid; Concentric cylinders viscometry
Measured viscosity by item
Respond with the bare value in mPa·s.

stdin: What value of viscosity has been reported for the following compound? CCCC[N+]1(C)CCCC1.O=S(=O)([N-]S(=O)(=O)C(F)(F)F)C(F)(F)F
stdout: 14.84

---

settings: 298.2 K; Liquid; Pendant drop shape
measurement_name: surface tension liquid-gas (mN/m)
Respond with the bare value in mN/m.

- substance_smiles: "CC(C)C[N+]1(C)CCCC1.O=S(=O)([N-]S(=O)(=O)C(F)(F)F)C(F)(F)F"
  surface tension liquid-gas [mN/m]: 33.54

stdin: What value of surface tension liquid-gas has been reported for the following compound? CCCC[N+]1(C)CCCCC1.O=S(=O)([N-]S(=O)(=O)C(F)(F)F)C(F)(F)F
stdout: 34.14

stdin: Another compound to look at: CC(C)Cn1cc[n+](C)c1.O=S(=O)([N-]S(=O)(=O)C(F)(F)F)C(F)(F)F
stdout: 32.72

stdin: Another compound to look at: Cc1ccc[n+](CC(C)C)c1.O=S(=O)([N-]S(=O)(=O)C(F)(F)F)C(F)(F)F
stdout: 33.45

---

Measured surface tension liquid-gas by item
details: 328.2 K; Liquid; Pendant drop shape
Respond with the bare value in mN/m.

Record excerpt, results attached:
- substance_smiles: "Cc1ccc[n+](CC(C)C)c1.O=S(=O)([N-]S(=O)(=O)C(F)(F)F)C(F)(F)F"
  measurement_units: "mN/m"
  surface tension liquid-gas: 32.08
- substance_smiles: "CC(C)Cn1cc[n+](C)c1.O=S(=O)([N-]S(=O)(=O)C(F)(F)F)C(F)(F)F"
  measurement_units: "mN/m"
  surface tension liquid-gas: 31.35
- substance_smiles: "CC(C)C[N+]1(C)CCCC1.O=S(=O)([N-]S(=O)(=O)C(F)(F)F)C(F)(F)F"
  measurement_units: "mN/m"
  surface tension liquid-gas: 32.2
- substance_smiles: "CCCC[N+]1(C)CCCCC1.O=S(=O)([N-]S(=O)(=O)C(F)(F)F)C(F)(F)F"
  measurement_units: "mN/m"
  surface tension liquid-gas: 32.68

stdin: What value of surface tension liquid-gas has been reported for the following compound? CC(C)C[N+]1(C)CCCCC1.O=S(=O)([N-]S(=O)(=O)C(F)(F)F)C(F)(F)F
stdout: 33.01

---

Measured mass density by item
details: 313.15 K; 101.33 kPa; Liquid; Vibrating tube method
Respond with the bare value in kg/m3.

stdin: What value of mass density has been reported for the following molecule? CC(C)C[N+]1(C)CCCCC1.O=S(=O)([N-]S(=O)(=O)C(F)(F)F)C(F)(F)F
stdout: 1384.4

stdin: Another molecule to look at: Cc1ccc[n+](CC(C)C)c1.O=S(=O)([N-]S(=O)(=O)C(F)(F)F)C(F)(F)F
stdout: 1398.8

stdin: Another molecule to look at: CCCC[n+]1cccc(C)c1.O=S(=O)([N-]S(=O)(=O)C(F)(F)F)C(F)(F)F
stdout: 1400.2

stdin: Another molecule to look at: CCCC[N+]1(C)CCCC1.O=S(=O)([N-]S(=O)(=O)C(F)(F)F)C(F)(F)F
stdout: 1388.3

---

experiment: refractive index (Na D-line) (dimensionless); conditions: 288.15 K; 101.33 kPa; Liquid; Standard Abbe refractometry
Numbers after ± are expanded uncertainties.
measurement_name: refractive index

Record excerpt, results attached:
- substance_smiles: "CCCC[n+]1ccn(C)c1.O=S(=O)([N-]S(=O)(=O)C(F)(F)F)C(F)(F)F"
  measurement_name: "refractive index"
  readout_value: "1.43015 ± 0.001"
- substance_smiles: "CC(C)C[N+]1(C)CCCC1.O=S(=O)([N-]S(=O)(=O)C(F)(F)F)C(F)(F)F"
  measurement_name: "refractive index"
  readout_value: "1.42708 ± 0.00051"
- substance_smiles: "CCCC[N+]1(C)CCCCC1.O=S(=O)([N-]S(=O)(=O)C(F)(F)F)C(F)(F)F"
  measurement_name: "refractive index"
  readout_value: "1.43251 ± 0.00037"

stdin: What value of refractive index has been reported for the following compound? CC(C)Cn1cc[n+](C)c1.O=S(=O)([N-]S(=O)(=O)C(F)(F)F)C(F)(F)F
stdout: 1.4301 ± 0.00051

---

conditions: 313.15 K; 101.33 kPa; Liquid; Concentric cylinders viscometry
Mark True only when viscosity stays strictly below 50 mPa·s. Values equal to the cut-off are False.

Some solved cases for reference:
- substance_smiles: "CC(C)Cn1cc[n+](C)c1.O=S(=O)([N-]S(=O)(=O)C(F)(F)F)C(F)(F)F"
  class_label: "True"
- substance_smiles: "CC(C)C[N+]1(C)CCCC1.O=S(=O)([N-]S(=O)(=O)C(F)(F)F)C(F)(F)F"
  class_label: "True"
- substance_smiles: "CCCC[N+]1(C)CCCCC1.O=S(=O)([N-]S(=O)(=O)C(F)(F)F)C(F)(F)F"
  class_label: "False"

stdin: Field: below-cutoff. Rule: recorded viscosity strictly less than 50 mPa·s. Subject: CC(C)C[N+]1(C)CCCCC1.O=S(=O)([N-]S(=O)(=O)C(F)(F)F)C(F)(F)F
stdout: False

stdin: Another compound to look at: CCCC[n+]1cccc(C)c1.O=S(=O)([N-]S(=O)(=O)C(F)(F)F)C(F)(F)F
stdout: True

stdin: Another compound to look at: CCCC[N+]1(C)CCCC1.O=S(=O)([N-]S(=O)(=O)C(F)(F)F)C(F)(F)F
stdout: True

stdin: Another compound to look at: Cc1ccc[n+](CC(C)C)c1.O=S(=O)([N-]S(=O)(=O)C(F)(F)F)C(F)(F)F
stdout: True

Attribution: the NIST ThermoML archive (doi:10.1016/j.fluid.2016.04.009)
